Source of measurements: patent US20210380703A1

# EXPERIMENTAL SYSTEM: T1, biotinylated goat anti-human kappa light chain
# T1 construct: Positive control of the ELISA
# ASSAY REMARKS: ELISA; positive control; also: test concentration or dose not given here

BINDER	QUANTITY UNIT	optical density
376_G08 (antibody, V domains shown, VH/VL only) VH: EVQLLESGGGLVQPGGSLRLSCAASGFTFDSYGMNWVRQAPGKGLEWVANINYNGGYTSYADSVKGRFTISRDNSKNTLYLQMNSLRAEDTAVYYCARSANWHDTALDYWGQGTLVTVSS VL: DIQMTQSPSSLSASVGDRVTITCRASQSILSYVNWYQQKPGKAPKLVIYAATSRASGVPSRFSGSGSGTDFTLTISSLQPEDFATYYCQQSYDTPLTFGGGTKVEIK	OD	3.47
376_A04 (antibody, V domains shown, VH/VL only) VH: EVQLLESGGGLVQPGGSLRLSCAASGFTFDSYSMNWVRQAPGKGLEWVSNINYNGGYTSYADSVKGRFTISRDNSKNTLYLQMNSLRAEDTAVYYCARSANWHDTALDYWGQGTLVTVSS VL: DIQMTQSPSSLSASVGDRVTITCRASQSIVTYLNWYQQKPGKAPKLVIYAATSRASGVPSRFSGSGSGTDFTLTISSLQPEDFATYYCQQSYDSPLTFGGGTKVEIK	OD	3.12
